Data origin, for the record: ChEMBL document CHEMBL1128309

# Lookup of reported Ratio keyed by entry
test: ED50 compared to that of taxol.; assay type: functional
// print number alone

Record excerpt, results attached:
[[record]]
compound = "CC(=O)O[C@@H]1C2=C(C)[C@@H](OC(=O)[C@H](O)[C@@H](NC(=O)c3ccccc3)c3ccccc3)C[C@@](O)([C@@H](OC(=O)c3ccccc3)[C@@H]3[C@]4(OC(C)=O)CO[C@@H]4C[C@H](O)[C@@]3(C)[C@H]1O)C2(C)C (stereo in doubt; 2)"
measurement_kind = "Ratio"
reported = 0.75

[[record]]
compound = "C=CCO[C@H]1C[C@H]2OC[C@@]2(OC(C)=O)[C@H]2[C@H](OC(=O)c3ccccc3)[C@]3(O)C[C@H](OC(=O)[C@H](O)[C@@H](NC(=O)c4ccccc4)c4ccccc4)C(C)=C([C@@H](OC(C)=O)[C@H](O)[C@]12C)C3(C)C"
measurement_kind = "Ratio"
reported = 1.4

[[record]]
compound = "CC(=O)O[C@@H]1C2=C(C)[C@@H](OC(=O)[C@H](O)[C@@H](NC(=O)c3ccccc3)c3ccccc3)C[C@@](O)([C@@H](OC(=O)c3ccccc3)[C@@H]3[C@]4(OC(C)=O)CO[C@@H]4C[C@H](OCC(O)CO)[C@@]3(C)[C@H]1O)C2(C)C (some centres undefined)"
measurement_kind = "Ratio"
reported = 2.02


Prompt: Item CC(=O)O[C@@H]1C2=C(C)[C@@H](OC(=O)[C@H](O)[C@@H](NC(=O)c3ccccc3)c3ccccc3)C[C@@](O)([C@@H](OC(=O)c3ccccc3)[C@@H]3[C@]4(OC(C)=O)CO[C@@H]4C[C@H](OCCO)[C@@]3(C)[C@H]1O)C2(C)C : provide Ratio
Response: 1.77

Prompt: Item CC(=O)OCCO[C@H]1C[C@H]2OC[C@@]2(OC(C)=O)[C@H]2[C@H](OC(=O)c3ccccc3)[C@]3(O)C[C@H](OC(=O)[C@H](O)[C@@H](NC(=O)c4ccccc4)c4ccccc4)C(C)=C([C@@H](OC(C)=O)[C@H](O)[C@]12C)C3(C)C : provide Ratio
Response: 2.47

Prompt: Item CC(=O)O[C@@H]1C2=C(C)[C@@H](OC(=O)[C@H](O)[C@@H](NC(=O)c3ccccc3)c3ccccc3)C[C@@](O)([C@@H](OC(=O)c3ccccc3)[C@@H]3[C@]4(OC(C)=O)CO[C@@H]4C[C@@H]4OC(=S)O[C@@H]1[C@]43C)C2(C)C : provide Ratio
Response: 2.78

Prompt: Item CC(=O)O[C@@H]1C2=C(C)[C@@H](OC(=O)[C@H](O)[C@@H](NC(=O)c3ccccc3)c3ccccc3)C[C@@](O)([C@@H](OC(=O)c3ccccc3)[C@@H]3[C@]4(OC(C)=O)CO[C@@H]4C[C@H](OC(C)=O)[C@@]3(C)[C@H]1OC(C)=O)C2(C)C : provide Ratio
Response: 0.91

Prompt: Item CO[C@H]1[C@H](OC(C)=O)C2=C(C)[C@@H](OC(=O)[C@H](O)[C@@H](NC(=O)c3ccccc3)c3ccccc3)C[C@@](O)([C@@H](OC(=O)c3ccccc3)[C@@H]3[C@]4(OC(C)=O)CO[C@@H]4C[C@H](O)[C@]31C)C2(C)C : provide Ratio
Response: 1.74
